Measured values drawn from PubChem BioAssay (NCI) for this set.

System: HCT-116 colon
Experiment: NCI tumour cell line growth inhibition, 48 h; in the data active = GI50 below about 0.43 µM; inactive = the rest
Select the correct class. Options are active, inactive and nothing else.

Q. Please state the recorded outcome for this compound: CCCN1CCN(c2ccc3nc(-c4ccc5nc(-c6ccc(C(F)(F)F)cc6)[nH]c5c4)[nH]c3c2)CC1
A. inactive

Q. Please state the recorded outcome for this compound: O=c1[nH]cnc2c1ccn2C1OC(CO)C(O)C1O (centres undefined)
A. inactive

Q. Please state the recorded outcome for this compound: COc1ccc(NC(=O)Nc2ccccc2CNc2nc(Nc3ccc(OCCN4CCCC4)cc3)ncc2Cl)cc1
A. inactive

Q. Please state the recorded outcome for this compound: COc1cccc2c1C(=O)c1c(O)c3c(c(O)c1C2=O)C[C@@](O)(C(C)=O)C[C@@H]3O[C@H]1C[C@H](N)[C@H](O)[C@H](C)O1
A. active

Q. Please state the recorded outcome for this compound: O=C1NC(=NCc2ccccc2Br)S/C1=C\c1ccc2ncccc2c1
A. inactive

Q. Please state the recorded outcome for this compound: Cc1cc(Nc2nc(-c3ccc(F)cc3)nc3ccccc23)n[nH]1
A. inactive

Q. Please state the recorded outcome for this compound: COc1ccccc1-c1cc(=O)c2c(C)ccnc2[nH]1
A. inactive

Q. Please state the recorded outcome for this compound: CSc1nc(N)cc(Oc2ccc(-c3nc(Nc4cccc(C(F)(F)F)c4)n[nH]3)cc2)n1
A. inactive

Q. Please state the recorded outcome for this compound: COc1cc(C2CC(c3cccc(Nc4ccnc5cc(Cl)ccc45)c3)=NN2C=O)cc(OC)c1OC (centres undefined)
A. active

* * *

Tested on: BT-549 breast
Test: NCI tumour cell line growth inhibition, 48 h; in the data active = GI50 below about 0.43 µM; inactive = the rest
Select the correct class. Options are active, inactive and nothing else.

Q. Please state the recorded outcome for this molecule: Clc1ccc(CNc2ccc3nc(CCC4CCCCC4)[nH]c3c2)cc1
A. inactive

Q. Please state the recorded outcome for this molecule: CSc1nc(N)cc(Oc2ccc(-c3nc(Nc4cccc(C(F)(F)F)c4)n[nH]3)cc2)n1
A. inactive

Q. Please state the recorded outcome for this molecule: CN1CCN(c2ccc3[nH]c(C4=C(O)c5nc(CCl)n(C)c5C(=O)C4=O)nc3n2)CC1
A. inactive

Q. Please state the recorded outcome for this molecule: Clc1nc(Cl)c2ncn(C/C=C\COc3cccc(OC/C=C\Cn4cnc5c(Cl)nc(Cl)nc54)c3)c2n1
A. inactive

Q. Please state the recorded outcome for this molecule: COc1cc(-c2cc(/C=C3\C(=O)Nc4cc(Cl)ccc43)[nH]n2)cc(OC)c1OC
A. inactive

Q. Please state the recorded outcome for this molecule: O=C(/C=C/c1cccs1)c1ccc(Cl)cc1Cl
A. inactive

Q. Please state the recorded outcome for this molecule: Cc1cc(Nc2nc(-c3ccc(F)cc3)nc3ccccc23)n[nH]1
A. inactive

Q. Please state the recorded outcome for this molecule: O=C1C(Br)=CC2C1C1C3CCC3C2(Br)C12OCCO2 (centres undefined)
A. inactive

Q. Please state the recorded outcome for this molecule: C[C@H]1CCC/C=C/[C@@H]2C[C@H](O)C[C@H]2[C@H](O)[C@@H](S(=O)C[C@@H](N)C(=O)O)CC(=O)O1 (some centres undefined)
A. active

* * *

Give measured GI50 for each item. Keep answers brief.
Test system: OVCAR-8 ovarian
Assay: NCI tumour cell line growth inhibition, 48 h

Q. State the recorded GI50 for this entry: Clc1ccc(CNc2ccc3nc(CCC4CCCCC4)[nH]c3c2)cc1
A. 3.18 µM

Q. State the recorded GI50 for this entry: O=C(OCc1nc2nc(Cl)nc(N3CCOCC3)c2[nH]1)n1ccnc1
A. 2.56 µM

Q. State the recorded GI50 for this entry: O=C1/C(=C\c2ccc(Cl)cc2)CCOc2c1ccc1ccccc21
A. 28.1 µM

Q. State the recorded GI50 for this entry: O=C1Nc2ccccc2/C1=C\c1c[nH]c2ccc(Br)cc12
A. 2.85 µM

Q. State the recorded GI50 for this entry: Cc1cc(Nc2nc(-c3ccc(F)cc3)nc3ccccc23)n[nH]1
A. 7.28 µM

Q. State the recorded GI50 for this entry: Cn1cc(-c2nonc2-c2cn(C)c3ccc(F)cc23)c2ccccc21
A. 0.63 µM

* * *

Tested on: HCC-2998 colon
Experiment: NCI tumour cell line growth inhibition, 48 h; in the data active = GI50 below about 0.43 µM; inactive = the rest
Select the correct class. Options are active, inactive and nothing else.

Q. Please state the recorded outcome for this molecule: CCCN1CCN(c2ccc3nc(-c4ccc5nc(-c6ccc(C(F)(F)F)cc6)[nH]c5c4)[nH]c3c2)CC1
A. inactive

Q. Please state the recorded outcome for this molecule: Cn1cc(-c2nonc2-c2cn(C)c3ccc(F)cc23)c2ccccc21
A. inactive

Q. Please state the recorded outcome for this molecule: O=c1oc2ccc(Br)cc2c(=O)n1-c1ccc(Br)cc1F
A. inactive

Q. Please state the recorded outcome for this molecule: CCN(CC)c1ccc(/C=N/NC(=O)c2ccc(S(C)(=O)=O)cc2)c(O)c1
A. active

* * *

Test system: RXF 393 renal
Experiment: NCI tumour cell line growth inhibition, 48 h
Give measured TGI for each item. Keep answers brief.

Q. State the recorded TGI for this entry: CC1(C(=O)Nc2ccc3cc4ccccc4cc3c2)CC2(C)CC(C)(C1)C(O)NC2=O (centres undefined)
A. > 100 µM

Q. State the recorded TGI for this entry: C[C@H]1CCC/C=C/[C@@H]2C[C@H](O)C[C@H]2[C@H](O)[C@@H](S(=O)C[C@@H](N)C(=O)O)CC(=O)O1 (some centres undefined)
A. 86.7 µM

Q. State the recorded TGI for this entry: COc1cc(/C=C2\C[C@H]3[C@@H]4CC=C5C[C@@H](OC(C)=O)CC[C@]5(C)[C@H]4CC[C@]3(C)\C2=N\O)cc(OC)c1OC
A. 4.28 µM

Q. State the recorded TGI for this entry: Cc1ccc(NC(=O)c2cc(S(=O)(=O)Nc3n[nH]c(=O)n3-c3ccccc3)c(S)cc2Cl)cc1
A. > 100 µM

* * *

Give measured TGI for each item. Keep answers brief.
System: HCT-116 colon
Test: NCI tumour cell line growth inhibition, 48 h

Q. State the recorded TGI for this entry: Cc1cc(Nc2nc(-c3ccc(F)cc3)nc3ccccc23)n[nH]1
A. 15.5 µM

Q. State the recorded TGI for this entry: N#Cc1c(-c2ccc(Cl)cc2)cc(-c2ccc(Nc3ccnc4cc(Cl)ccc34)cc2)nc1N
A. > 100 µM

Q. State the recorded TGI for this entry: CC(OC(C)(C)C)[C@H](NC(=O)OCc1ccccc1)C(=O)NC(OCc1ccccc1)[C@H]1COC(C)(C)O1 (some centres undefined)
A. > 100 µM

Q. State the recorded TGI for this entry: Cc1ccc(NC(=O)/C=C/c2ccccc2)c(C)c1
A. > 100 µM

Q. State the recorded TGI for this entry: CCn1c(-c2nonc2N)nc2c(C#CC(C)(C)O)nc(CN3CCCC3)cc21
A. > 25 µM

Q. State the recorded TGI for this entry: COc1ccc(N2C(Cl)C(=O)C2c2c[nH]c3ccccc23)cc1 (centres undefined)
A. > 100 µM

Q. State the recorded TGI for this entry: CN1CCN(CC(=O)N2CCCn3c2nc2ccccc2c3=O)CC1
A. > 100 µM

Q. State the recorded TGI for this entry: O=C1C=CC=C[C@@H]2C(C3OCCO3)CC[C@H]12.[C-]#[O+].[C-]#[O+].[C-]#[O+].[Fe] (some centres undefined)
A. 41.5 µM

Q. State the recorded TGI for this entry: Cc1ncc(C(=O)Nc2ccc(CN3CCN(C)CC3)c(C(F)(F)F)c2)cc1C#Cc1c(N)ncc2ccc(F)cc12
A. 0.873 µM

* * *

Test system: SF-539 CNS
Assay: NCI tumour cell line growth inhibition, 48 h
Give measured TGI for each item. Keep answers brief.

Q. State the recorded TGI for this entry: COc1ccc(C2C(C#N)=C(O)NC(O)=C2C#N)cc1OC
A. > 100 µM

Q. State the recorded TGI for this entry: CC(C)c1cc2c(c(O)c1O)[C@@]1(C)CCCC(C)(C)C1=C(O)C2
A. 1.89 µM

Q. State the recorded TGI for this entry: CC1=C(C(=O)CC(=O)C(=O)Nc2cccc(C)c2C)Sc2ccccc2N1
A. > 100 µM

Q. State the recorded TGI for this entry: O=[N+]([O-])/C(C(Cl)=C(Cl)Cl)=C1\NCCS1
A. > 100 µM

Q. State the recorded TGI for this entry: Cc1cc(C)c2c(c1)CC1(Cc3c(ccc(C)c3C)C1=O)C2=O (stereo not drawn)
A. > 100 µM

Q. State the recorded TGI for this entry: Cc1ccc(NC(=O)/C=C/c2ccccc2)c(C)c1
A. > 100 µM

Q. State the recorded TGI for this entry: COC(=O)C1(C(=O)OC)CC(=O)c2c(OC(=O)c3cccc(OC)c3C#N)ccc(OC(=O)c3cccc(OC)c3C#N)c2C1
A. > 100 µM

Q. State the recorded TGI for this entry: N[C@H]1C[C@@H]1c1ccc(-c2cccc(O)c2)cc1
A. 98.4 µM

Q. State the recorded TGI for this entry: COc1cc2c(cc1OC)C(C#N)(Cc1ccccc1)N(C(=O)c1ccccc1)C=C2 (stereo not drawn)
A. > 100 µM

Q. State the recorded TGI for this entry: CSc1nc(N)cc(Oc2ccc(-c3nc(Nc4cccc(C(F)(F)F)c4)n[nH]3)cc2)n1
A. 4.19 µM

Q. State the recorded TGI for this entry: COc1ccc(C(=O)O)c(Br)c1OCc1ccccc1
A. > 100 µM

Q. State the recorded TGI for this entry: CC(OC(C)(C)C)[C@H](NC(=O)OCc1ccccc1)C(=O)NC(OCc1ccccc1)[C@H]1COC(C)(C)O1 (stereo partly drawn)
A. > 10 µM

Q. State the recorded TGI for this entry: NC1CCCCC1N.O=C([O-])c1cc(S(=O)(=O)Nc2cc(S(=O)(=O)[O-])cc3cc(S(=O)(=O)[O-])cc(O)c23)ccc1[O-].[Pt+4]
A. > 100 µM

Q. State the recorded TGI for this entry: O=C(CC1C(=O)Nc2ccccc2S1(=O)=O)Nc1cc(Cl)ccc1Cl (stereo not drawn)
A. 7.23 µM

Q. State the recorded TGI for this entry: O=C1/C(=C\c2ccc(Cl)cc2)CCOc2c1ccc1ccccc21
A. 29.9 µM

Q. State the recorded TGI for this entry: O=C(NC/C(Cl)=C/Cl)Nc1c2ccccc2nc2ccccc12
A. 93.2 µM

Q. State the recorded TGI for this entry: C=CCN1CN(C2CCCCC2)CSC1=S
A. 8.04 µM

Q. State the recorded TGI for this entry: COc1ccc2c(c1)CCc1c(C(C)=O)c3ccccc3n1C2
A. 62.6 µM

Q. State the recorded TGI for this entry: CC(C)(C)C1=Nc2c(Br)cc(C(C)(C)C)cc2C(C(F)(F)F)(C(F)(F)F)O1
A. > 100 µM

Q. State the recorded TGI for this entry: NC(N)=N/N=C\c1ccc(C2CCNCC2)cc1
A. > 100 µM

Q. State the recorded TGI for this entry: CCOP(=O)(OCC)C1CC(C)OC1=O (stereo not drawn)
A. > 100 µM

Q. State the recorded TGI for this entry: CS(=O)(=O)CCN(CC#N)Cc1ccc(-c2ccc3ncnc(Nc4ccc(OCc5cccc(F)c5)c(Cl)c4)c3c2)o1
A. > 25 µM

Q. State the recorded TGI for this entry: CC(C)(C)c1ccc(S(=O)(=O)N2C(c3cccc(C4CC[C@@H](C(=O)O)N4S(=O)(=O)c4ccc(C(C)(C)C)cc4)c3)CC[C@H]2C(=O)O)cc1 (stereo partly drawn)
A. > 100 µM
